Data provenance is the supplement of paper PMC9112550.

System: Escherichia coli TOP10
protocol_notes: shrunken log2 fold change of peptide-encoding DNA abundance (4.5 h post-induction vs induction); higher = less antimicrobial activity (less host growth inhibition)
reported_conditions: time post-induction: 4.5 h; library: site-saturation at positions 5, 18, 19, 20
Please provide measured shrunken log2 fold change for the entries that follow.
Give bare numbers.

Please review the following examples before continuing.
- query_sequence: "RRIRYRPPRLPRPRPRPQLVPRP"
  numeric_readout: -0.045
- query_sequence: "RRIRSRPPRLPRPRPRPMLDPRP"
  numeric_readout: -0.291
- query_sequence: "RRIRGRPPRLPRPRPRPFQLPRP"
  numeric_readout: 0.0144

List the reported shrunken log2 fold change of each sequence below.
1. RRIRFRPPRLPRPRPRPCFSPRP
2. RRIRFRPPRLPRPRPRPHYKPRP

1. -0.759
2. -0.408

###

Test system: Escherichia coli TOP10
protocol_notes: shrunken log2 fold change of peptide-encoding DNA abundance (4.5 h post-induction vs induction); higher = less antimicrobial activity (less host growth inhibition)
reported_conditions: time post-induction: 4.5 h; library: site-saturation at positions 5, 18, 19, 20
Rule: shrunken log2 fold change of 0.05 or more gives true; anything lower gives false.

Observe how each entry below is paired with its result.
- query_sequence: "RRIRQRPPRLPRPRPRPVSRPRP"
  classification: "false"
- query_sequence: "RRIRKRPPRLPRPRPRPHAQPRP"
  classification: "true"
- query_sequence: "RRIRQRPPRLPRPRPRPKNWPRP"
  classification: "true"
- query_sequence: "RRIRNRPPRLPRPRPRPPLLPRP"
  classification: "true"
- query_sequence: "RRIRCRPPRLPRPRPRPTNHPRP"
  classification: "false"

Evaluate RRIRSRPPRLPRPRPRPALGPRP : shrunken log2 fold change at minimum 0.05?
true

And what about the sequence RRIRLRPPRLPRPRPRPYPCPRP ?
true

Can you handle RRIRHRPPRLPRPRPRPDGSPRP next?
false

// repeat for RRIRNRPPRLPRPRPRPNHIPRP and report
false

RRIRDRPPRLPRPRPRPDMNPRP ?
true

And then RRIRCRPPRLPRPRPRPGEDPRP , what is it?
false

# iterate: RRIRIRPPRLPRPRPRPRGLPRP
false

What about this sequence? RRIRMRPPRLPRPRPRPRMMPRP
true

Lookup RRIRGRPPRLPRPRPRPCRRPRP
true

# iterate: RRIRSRPPRLPRPRPRPAWEPRP
true

###

Tested on: Escherichia coli TOP10;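 note: peptides expressed intracellularly from a pBAD plasmid library in pooled LB shake-flask culture, induced with 0.3% L-arabinose, DNA abundance read by NGS, three biological replicates, DESeq2 with apeglm shrinkage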
protocol_notes: shrunken log2 fold change of peptide-encoding DNA abundance (4.5 h post-induction vs induction); higher = less antimicrobial activity (less host growth inhibition)
reported_conditions: time post-induction: 4.5 h; library: site-saturation at positions 5, 18, 19, 20
I'd appreciate it if you could supply shrunken log2 fold change values for the items below.

# annotated cases, reported shrunken log2 fold change shown
- query_sequence: "RRIRRRPPRLPRPRPRPCTEPRP"
  shrunken log2 fold change: 0.106
- query_sequence: "RRIRNRPPRLPRPRPRPWHTPRP"
  shrunken log2 fold change: -0.0681
- query_sequence: "RRIRMRPPRLPRPRPRPPAWPRP"
  shrunken log2 fold change: 1.22
- query_sequence: "RRIRDRPPRLPRPRPRPDPKPRP"
  shrunken log2 fold change: 0.189
- query_sequence: "RRIRIRPPRLPRPRPRPYTCPRP"
  shrunken log2 fold change: -0.0187

Value sought for every listed sequence: shrunken log2 fold change.
1. RRIRWRPPRLPRPRPRPFWQPRP
2. RRIRNRPPRLPRPRPRPWWYPRP
3. RRIRHRPPRLPRPRPRPVFQPRP

-0.00499
-0.361
-0.0932
